# Test system: MOLT-4
# protocol: NCI tumour cell line growth inhibition, 48 h
Calls of active or inactive are those of the source. Cut-off read from the data, not from the text of the source: active = GI50 up to about 1.1 µM and inactive = higher.
Hi! Could you answer with just one of these? active, inactive

Before answering, review these 8 worked examples.
COc1ccc2cc(CN3CCC(C4CCNCC4)CC3)ccc2c1
active
CCOc1c(OC)cc(C2c3cc4c(c(OCC)c3CC3COC(=O)C32)OCO4)cc1OC (stereo not given)
inactive
Cc1ccc(/N=C2\N=C(N3CC(C)OC(C)C3)c3ccccc32)cc1 (stereo not given)
inactive
C[N+]1([O-])[C@H]2CC(OC(=O)[C@H](CO)c3ccccc3)C[C@H]1[C@H]1O[C@H]12 (stereo not given in full)
inactive
C/C=C\C1OC1(C)c1cc(=O)c2c(C)cc3c(c2o1)C(=O)c1c(O)c(C2CC(C)(N(C)C)C(OC(C)=O)C(C)O2)cc(C2CC(N(C)C)C(O)C(C)O2)c1C3=O (stereo not given)
active
N#CC(c1nc2ccccc2s1)c1nc(Cl)ncc1Br (stereo not given)
inactive
Brc1ccc(C2C3CSc4ccccc4C3=NN2c2ccccc2)cc1 (stereo not given)
inactive
NS(=O)(=O)c1cc2c(cc1Cl)NCNS2(=O)=O [HYDROCHLOROTHIAZIDE]
inactive

Hi, do you know how C[N+]12C=CC=C1C(N1CCCC1)c1scc(-c3ccc(F)cc3)c12 (stereo not given) came out in this test?
inactive

Hi, do you know how Oc1cc(-c2ccc(F)cc2)nc2ncc(Cl)cc12 came out in this test?
inactive
